Recorded values, source ChEMBL document CHEMBL1130731.

protocol: Bioavailability in dog (dose 4 mg/kg p.o.)
Type: ADME, organism-based, Canis lupus familiaris
setup conditions: in vivo, po
parameter: bioavailability

[[record]]
compound = "CO/N=C1\\CN(c2c(F)cc3c(=O)c(C(=O)O)cn(C4CC4)c3c2F)CC1N (stereo unspecified)"
parameter = "bioavailability"
data_value = "> 100%"


----------
# MIC annotations
Test system: Staphylococcus aureus
protocol: In vitro antimicrobial activity against Staphylococcus aureus giorgio
Type: functional
parameter: MIC (µg/mL)

[[record]]
compound = "CO/N=C1\\CN(c2c(F)c(N)c3c(=O)c(C(=O)O)cn(C4CC4)c3c2F)CC1N (stereo not given)"
target_or_test_system = "Staphylococcus aureus"
parameter = "MIC"
unit_tag = "µg/mL"
measurement_qualifier = "≤"
data_value = 0.008

[[record]]
compound = "CNC1CN(c2nc3c(cc2F)c(=O)c(C(=O)O)cn3C2CC2)C/C1=N\\OC (stereo not given)"
target_or_test_system = "Staphylococcus aureus"
parameter = "MIC"
unit_tag = "µg/mL"
measurement_qualifier = "="
data_value = 0.031

[[record]]
compound = "C=CCO/N=C1\\CN(c2c(F)cc3c(=O)c(C(=O)O)cn(C4CC4)c3c2F)CC1N (stereo not given)"
target_or_test_system = "Staphylococcus aureus"
parameter = "MIC"
unit_tag = "µg/mL"
measurement_qualifier = "="
data_value = 0.016

[[record]]
compound = "CO/N=C1\\CN(c2c(F)cc3c(=O)c(C(=O)O)cn(C4CC4)c3c2F)CC1N (stereo not given)"
target_or_test_system = "Staphylococcus aureus"
parameter = "MIC"
unit_tag = "µg/mL"
measurement_qualifier = "≤"
data_value = 0.008

[[record]]
compound = "CO/N=C1/CN(c2c(F)cc3c(=O)c(C(=O)O)cn(C4CC4)c3c2Cl)CC1N (stereo not given)"
target_or_test_system = "Staphylococcus aureus"
parameter = "MIC"
unit_tag = "µg/mL"
measurement_qualifier = "="
data_value = 0.016

[[record]]
compound = "NC1CN(c2c(F)cc3c(=O)c(C(=O)O)cn(C4CC4)c3c2F)C/C1=N\\O (stereo not given)"
target_or_test_system = "Staphylococcus aureus"
parameter = "MIC"
unit_tag = "µg/mL"
measurement_qualifier = "="
data_value = 0.063

[[record]]
compound = "NC1CN(c2c(F)cc3c(=O)c(C(=O)O)cn(C4CC4)c3c2F)C/C1=N\\OCCF (stereo not given)"
target_or_test_system = "Staphylococcus aureus"
parameter = "MIC"
unit_tag = "µg/mL"
measurement_qualifier = "="
data_value = 0.031

[[record]]
compound = "O=C(O)c1cn(C2CC2)c2cc(N3CCNCC3)c(F)cc2c1=O"
target_or_test_system = "Staphylococcus aureus"
parameter = "MIC"
unit_tag = "µg/mL"
measurement_qualifier = "="
data_value = 0.25

[[record]]
compound = "CO/N=C1\\CN(c2nc3c(cc2F)c(=O)c(C(=O)O)cn3C2CC2)CC1N (stereo not given)"
target_or_test_system = "Staphylococcus aureus"
parameter = "MIC"
unit_tag = "µg/mL"
measurement_qualifier = "="
data_value = 0.063

[[record]]
compound = "CO/N=C1/CN(c2cc3c(cc2F)c(=O)c(C(=O)O)cn3C2CC2)CC1N (stereo not given)"
target_or_test_system = "Staphylococcus aureus"
parameter = "MIC"
unit_tag = "µg/mL"
measurement_qualifier = "="
data_value = 0.016

